Read-out record for Cow milk Xanthine Oxidase (Bos taurus, UniProt P80457): IC50
Counter-ions that a name gives are not always drawn.
One number for each entry, in nM.

Parameter requested: IC50. Apply to each item below.
1. O=[N+]([O-])c1cc(-c2nc3c(O)ncnc3s2)ccc1Oc1ccc(-c2ccccc2)cc1 [Example 31]
2. O=[N+]([O-])c1cc(-c2nc3c(O)ncnc3o2)ccc1Oc1ccc(F)cc1 [Example 39, potassium salt]
3. O=[N+]([O-])c1cc(-c2nc3c(O)ncnc3s2)ccc1Oc1cccc(F)c1 [Example 20]

36.8
13.5
10.2

Where these numbers come from: patent US20070293512A1
